src = patent US20210040232A1

Measured pEC50, listed per entry for reference.
- target-system: T1, human CTLA-4 (amino acids M1-N223) on stably transfected VI-fibroblast cells (human, UniProt P16410 36-223)
- T1 construct: also called VI-fibroblast/hCTLA-4
- T1 sequence (P16410 36-223 limits assumed): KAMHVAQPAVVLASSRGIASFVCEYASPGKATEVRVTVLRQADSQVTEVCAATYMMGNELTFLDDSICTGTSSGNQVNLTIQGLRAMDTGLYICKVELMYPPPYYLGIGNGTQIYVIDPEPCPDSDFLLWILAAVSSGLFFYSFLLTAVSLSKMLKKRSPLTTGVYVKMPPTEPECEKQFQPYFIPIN
- test-details: ECL cell binding, VI-fibroblast/hCTLA-4 cells;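 also: antibodies bound to the cells on carbon electrode plates, detected via SULFO-TAG anti-IgG secondary (1 h, RT), electrochemiluminescence read as RLU over a concentration range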
Please treat pEC50 as minus the base-10 logarithm of the molar concentration.

Some binders with recorded pEC50:
• H2M20361N (antibody, mouse IgG2, V domains shown, hybridoma antibody, human variable domains, mouse IgG2 Fc (H2M)) VH: QVQLQESGPGLVKPSQTLSLTCTVSGGSINNGGHYWTWIRQHPGKGLEWIGYIYYIGTTYYNPSLESRLSLSVDTSKNQFSLKLSSVTAADTAIYYCARSSLSVSEAFDVWGQGTMVTVSS VL: DIQMTQSPSSLSASVGDRITITCRGSQNIGSFLSWYQQRPGKAPKLLIFGAYNLQGGVPSRFSGSGSGTDFTLTISSLQPEDFATYFCQQSYSTPPITFGQGTRLEIK = 9.49
• H1M20372N (antibody, mouse IgG1, V domains shown, hybridoma antibody, human variable domains, mouse IgG1 Fc (H1M)) VH: EVQLVESGGGLVQPGRSLRLSCAGTGFIFDDYAMHWVRQAPGKGLEWVSGISWNSNSLGYADSVKGRFTISRDNAKKSLYLQMSSLRAEDTALYYCVKDVTRLELRGFLDYWGQGTQVTVSS VL: DIQMTQSPSSLSASVGDRVTITCRASQDIRNDLGWHQQKSGKAPKSLIYAASSLQSGAPSRFSGSGSGTEFTLTISSLQPEDSATYYCLQQNSYPPTFGQGTKVEIK = 9.06

Okay, now this binder:
[Q] Annotate the binder H1H19274P (antibody, human IgG1, V domains shown) VH: QVQLQESGPGLVKPSETLSLTCTVSGGSINSYYWTWIRQPPGKGLEWIGYVYYSGSTTYNPSLKSRVTISVDTSKNQFFLNLNSVTAAETAVYYCARGTLGYYGMDVWGQGTTVTVSS VL: EIVLTQSPGTLSLSPGERATLSCRASQSFSNNYLAWYQQKPGQAPRLLIYGTSIRATGIPDRFSGSGSGTDFTLAISRLEPEDFAVYYCQQYGRSPLTFGGGTKVEIK with its measured pEC50.
[A] 9.41
